Test system: HCC1806
protocolNotes: Cell viability assay (CCK-8)
Format: cell-based
assaySetup: free payloads; CCK-8, 96 hours; 'HCCHOI' [sic], Mamary; read-out: IC50 (95% Cl)
Where a SMILES comes first, the peptide text is derived from it. [ ]: non-standard residue; d: D form. The star is where a group is joined. Dolaproine = CO[C@@H]([C@@H]1CCCN1)[C@@H](C)C(=O)O; Dil = CC[C@H](C)[C@H](NC)[C@@H](CC(=O)O)OC; X1 = C[C@@H](N*)[C@@H](O)c1ccccc1; NMeV = CN[C@H](C(=O)O)C(C)C
quantityKind: IC50 (nM)
Value expressed in nM; do not type the unit.

CCc1c2c(nc3ccc(O)cc13)-c1cc3c(c(=O)n1C2)COC(=O)[C@]3(O)CC    0.412

Lab note: next compound to report on.
Which IC50 value belongs to CC[C@H](C)[C@@H]([C@@H](CC(=O)N1CCC[C@H]1[C@H](OC)[C@@H](C)C(=O)N[C@H](C)[C@@H](O)c1ccccc1)OC)N(C)C(=O)[C@@H](NC(=O)[C@@H](NC)C(C)C)C(C)C [MMAE] (H-[NMeV]V[Dil][Dolaproine]-X1) ?
0.0177
